Data origin, for the record: ChEMBL document CHEMBL1137199

Measured IC50 on UniProt Q92731 follows.
measure: IC50 (nM)

Below are worked cases with known answers.
[[record]]
record_smiles = "Oc1ccc([C@H]2Sc3cc(O)ccc3O[C@H]2c2ccc(OCCN3CCSCC3)cc2)cc1"
assayed_system = "UniProt Q92731"
result_number = 72

[[record]]
record_smiles = "OC[C@H]1CCCN1CCOc1ccc([C@@H]2Oc3ccc(O)cc3S[C@@H]2c2ccc(O)cc2)cc1"
assayed_system = "UniProt Q92731"
result_number = 134

[[record]]
record_smiles = "NC(=O)C1CCN(CCOc2ccc([C@@H]3Oc4ccc(O)cc4S[C@@H]3c3ccc(O)cc3)cc2)CC1"
assayed_system = "UniProt Q92731"
result_number = 366


[1] Oc1ccc([C@H]2Sc3cc(O)ccc3O[C@H]2c2ccc(OCCN3CCC(F)(F)CC3)cc2)cc1
[2] Oc1ccc([C@H]2Sc3cc(O)ccc3O[C@H]2c2ccc(OCCN3CCC(F)CC3)cc2)cc1
# compare IC50 for 1 vs 2 ; return the one with the smaller value Return value: the label identifying the chosen record.
2
(2: 116 nM, 1: 275 nM)

---

Measured IC50 on Estrogen receptor beta (Homo sapiens) follows.
Sequence (Q92731 whole entry): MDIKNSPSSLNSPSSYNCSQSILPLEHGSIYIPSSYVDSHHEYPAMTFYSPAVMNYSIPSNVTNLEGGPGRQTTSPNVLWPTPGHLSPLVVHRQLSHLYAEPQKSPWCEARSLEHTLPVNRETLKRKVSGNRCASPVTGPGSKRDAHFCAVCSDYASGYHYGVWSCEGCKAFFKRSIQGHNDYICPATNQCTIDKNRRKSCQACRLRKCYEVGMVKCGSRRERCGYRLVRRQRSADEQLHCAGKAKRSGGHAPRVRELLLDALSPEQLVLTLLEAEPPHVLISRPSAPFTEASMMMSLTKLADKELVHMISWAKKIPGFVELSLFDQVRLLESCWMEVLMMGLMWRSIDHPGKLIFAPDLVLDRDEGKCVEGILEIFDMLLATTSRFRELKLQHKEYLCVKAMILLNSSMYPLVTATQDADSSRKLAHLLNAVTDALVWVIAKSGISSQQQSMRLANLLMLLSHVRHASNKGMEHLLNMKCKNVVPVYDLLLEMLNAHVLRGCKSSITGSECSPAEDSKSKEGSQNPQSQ
measure: IC50 (µM)

Below are worked cases with known answers.
[[record]]
record_smiles = "Oc1ccc([C@H]2Sc3cc(O)ccc3O[C@H]2c2ccc(OCCN3CC[C@@H](F)C3)cc2)cc1"
measure = "IC50"
result_number = 0.059

[[record]]
record_smiles = "O=S1(=O)CCN(CCOc2ccc([C@@H]3Oc4ccc(O)cc4S[C@@H]3c3ccc(O)cc3)cc2)CC1"
measure = "IC50"
result_number = 0.247


[1] Oc1ccc([C@H]2Sc3cc(O)ccc3O[C@H]2c2ccc(OCCN3CCC4(CC3)OCCO4)cc2)cc1
[2] OCC1CCN(CCOc2ccc([C@@H]3Oc4ccc(O)cc4S[C@@H]3c3ccc(O)cc3)cc2)CC1
# compare IC50 for 1 vs 2 ; return the one with the smaller value Return value: the label identifying the chosen record.
1
(1: 0.267 µM, 2: 0.436 µM)

---

Measured IC50 on Estrogen receptor (Homo sapiens, UniProt P03372) follows.
Sequence (P03372 whole entry): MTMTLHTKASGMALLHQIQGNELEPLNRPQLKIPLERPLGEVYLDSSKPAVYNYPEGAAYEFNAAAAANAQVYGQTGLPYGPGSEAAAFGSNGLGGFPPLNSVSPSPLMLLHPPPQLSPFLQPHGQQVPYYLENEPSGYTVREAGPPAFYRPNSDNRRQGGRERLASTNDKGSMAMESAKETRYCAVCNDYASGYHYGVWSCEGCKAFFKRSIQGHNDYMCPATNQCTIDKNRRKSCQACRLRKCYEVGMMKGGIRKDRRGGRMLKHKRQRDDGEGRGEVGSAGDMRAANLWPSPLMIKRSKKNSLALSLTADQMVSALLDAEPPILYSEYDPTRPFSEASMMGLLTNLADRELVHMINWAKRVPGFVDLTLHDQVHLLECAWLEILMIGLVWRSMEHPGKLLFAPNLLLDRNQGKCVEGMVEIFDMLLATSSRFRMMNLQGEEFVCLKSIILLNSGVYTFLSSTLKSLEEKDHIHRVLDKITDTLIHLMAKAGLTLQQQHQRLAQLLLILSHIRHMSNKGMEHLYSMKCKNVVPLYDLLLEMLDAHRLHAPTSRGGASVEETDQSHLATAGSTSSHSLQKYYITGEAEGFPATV
measure: IC50 (nM)

[1] OCCC1CCN(CCOc2ccc([C@@H]3Oc4ccc(O)cc4S[C@@H]3c3ccc(O)cc3)cc2)CC1
[2] Oc1ccc([C@H]2Sc3cc(O)ccc3O[C@H]2c2ccc(OCCN3CCC(F)(F)CC3)cc2)cc1
[3] NC(=O)C1CCN(CCOc2ccc([C@@H]3Oc4ccc(O)cc4S[C@@H]3c3ccc(O)cc3)cc2)CC1
Could you please order the items by IC50, going from the lowest number to the highest? Write the labels, ordered according to the request.
3, 1, 2

---

system: MCF7; experiment: cells; conditions: Homo sapiens
measure: IC50 (nM)

[[record]]
record_smiles = "Oc1ccc([C@H]2Sc3cc(O)ccc3O[C@H]2c2ccc(OCCN3CCC(F)(F)CC3)cc2)cc1"
assayed_system = "MCF7"
measure = "IC50"
result_units = "nM"
result_number = 42

[[record]]
record_smiles = "O=S1(=O)CCN(CCOc2ccc([C@@H]3Oc4ccc(O)cc4S[C@@H]3c3ccc(O)cc3)cc2)CC1"
assayed_system = "MCF7"
measure = "IC50"
result_units = "nM"
result_number = 26.3

[[record]]
record_smiles = "Oc1ccc([C@H]2Sc3cc(O)ccc3O[C@H]2c2ccc(OCCN3CCSCC3)cc2)cc1"
assayed_system = "MCF7"
measure = "IC50"
result_units = "nM"
result_number = 15.6

[[record]]
record_smiles = "OCCC1CCN(CCOc2ccc([C@@H]3Oc4ccc(O)cc4S[C@@H]3c3ccc(O)cc3)cc2)CC1"
assayed_system = "MCF7"
measure = "IC50"
result_units = "nM"
result_number = 42.5


---

system: MCF7; experiment: cells; details: Homo sapiens
pIC50: −log10 of the molar value.
measure: pIC50

Below are worked cases with known answers.
[[record]]
record_smiles = "Oc1ccc([C@H]2Sc3cc(O)ccc3O[C@H]2c2ccc(OCCN3CCC4(CC3)OCCO4)cc2)cc1"
measure = "pIC50"
result_number = 7.37

[[record]]
record_smiles = "Oc1ccc([C@H]2Sc3cc(O)ccc3O[C@H]2c2ccc(OCCN3CC[C@@H](O)C3)cc2)cc1"
measure = "pIC50"
result_number = 9.22


[A] Oc1ccc([C@H]2Sc3cc(O)ccc3O[C@H]2c2ccc(OCCN3CC[C@@H](F)C3)cc2)cc1
[B] OCC1CCN(CCOc2ccc([C@@H]3Oc4ccc(O)cc4S[C@@H]3c3ccc(O)cc3)cc2)CC1
# compare pIC50 for A vs B ; return the one with the smaller value Return value: the label identifying the chosen record.
B
(B: 7.95, A: 8.42)

---

tested on: MCF7; assay: cells; conditions: Homo sapiens
measure: IC50 (nM)

[[record]]
record_smiles = "Oc1ccc([C@H]2Sc3cc(O)ccc3O[C@H]2c2ccc(OCCN3CCC(O)CC3)cc2)cc1"
result_units = "nM"
result_number = 7.5


[A] OC[C@H]1CCCN1CCOc1ccc([C@@H]2Oc3ccc(O)cc3S[C@@H]2c2ccc(O)cc2)cc1
[B] NC(=O)C1CCN(CCOc2ccc([C@@H]3Oc4ccc(O)cc4S[C@@H]3c3ccc(O)cc3)cc2)CC1
# compare IC50 for A vs B ; return the one with the smaller value Return value: the label identifying the chosen record.
A
(A: 3.2 nM, B: 21 nM)
